# Target system: Growth hormone secretagogue receptor type 1 (Homo sapiens, UniProt Q92847)
# Sequence (Q92847 whole entry): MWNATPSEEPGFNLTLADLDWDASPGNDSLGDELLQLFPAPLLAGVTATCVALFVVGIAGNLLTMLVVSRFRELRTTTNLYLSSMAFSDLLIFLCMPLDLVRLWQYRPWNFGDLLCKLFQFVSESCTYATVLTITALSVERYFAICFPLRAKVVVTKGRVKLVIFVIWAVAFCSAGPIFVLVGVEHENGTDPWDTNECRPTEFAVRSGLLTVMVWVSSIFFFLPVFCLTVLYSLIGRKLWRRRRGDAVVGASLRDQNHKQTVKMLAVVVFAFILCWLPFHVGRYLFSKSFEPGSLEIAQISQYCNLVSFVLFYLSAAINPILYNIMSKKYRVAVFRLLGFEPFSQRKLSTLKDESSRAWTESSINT
# Assay: Displacement of [125I]-His9-ghrelin from human GHS-R1a transfected in pig LLC PK-1 cell membranes after 60 mins by gamma counting method
Entries annotated with measured Ki
Measured quantity: Ki (nM)

{"Structure notation": "COc1ccc(Cn2c([C@H](Cc3ccccc3)NC(C)=O)nnc2[C@@H](Cc2c[nH]c3ccccc23)NC(=O)C(C)(C)N)cc1", "Measured quantity": "Ki", "Relation qualifier": ">", "Val": 1000}
{"Structure notation": "COc1ccc(Cn2c([C@H](Cc3c[nH]c4ccccc34)NC(C)=O)nnc2[C@@H](Cc2c[nH]c3ccccc23)NC(=O)C(C)(C)N)cc1", "Measured quantity": "Ki", "Relation qualifier": ">", "Val": 1000}
{"Structure notation": "COc1ccc(Cn2c([C@@H](N)Cc3c[nH]c4ccccc34)nnc2[C@@H](Cc2c[nH]c3ccccc23)NC(=O)C(C)(C)N)cc1", "Measured quantity": "Ki", "Relation qualifier": ">", "Val": 1000}
{"Structure notation": "COc1ccc(Cn2c([C@@H](N)Cc3ccccc3)nnc2[C@@H](Cc2c[nH]c3ccccc23)NC(=O)C(C)(C)N)cc1", "Measured quantity": "Ki", "Relation qualifier": ">", "Val": 1000}
{"Structure notation": "COc1ccc(Cn2c([C@H](N)Cc3ccccc3)nnc2[C@@H](Cc2c[nH]c3ccccc23)NC(=O)c2ccccn2)cc1", "Measured quantity": "Ki", "Relation qualifier": "=", "Val": 18}
{"Structure notation": "COc1ccc(Cn2c([C@@H](Cc3c[nH]c4ccccc34)NC(C)=O)nnc2[C@@H](Cc2c[nH]c3ccccc23)NC(=O)c2ccccn2)cc1", "Measured quantity": "Ki", "Relation qualifier": "=", "Val": 9}
{"Structure notation": "COc1ccc(Cn2c([C@@H](Cc3ccccc3)NC(C)=O)nnc2[C@@H](Cc2c[nH]c3ccccc23)NC(=O)c2cc(F)cc(F)n2)cc1", "Measured quantity": "Ki", "Relation qualifier": "=", "Val": 11}
{"Structure notation": "COc1ccc(Cn2c([C@@H](Cc3ccccc3)NC(C)=O)nnc2[C@@H](Cc2c[nH]c3ccccc23)NC(=O)C(C)(C)N)cc1", "Measured quantity": "Ki", "Relation qualifier": "=", "Val": 46}
{"Structure notation": "COc1ccc(Cn2c([C@H](Cc3c[nH]c4ccccc34)NC=O)nnc2[C@@H](Cc2c[nH]c3ccccc23)NC(=O)c2ccccn2)cc1", "Measured quantity": "Ki", "Relation qualifier": "=", "Val": 154}
{"Structure notation": "COc1ccc(Cn2c([C@@H](Cc3ccccc3)NC(C)=O)nnc2[C@@H](Cc2c[nH]c3ccccc23)NC(=O)CO)cc1", "Measured quantity": "Ki", "Relation qualifier": "=", "Val": 0.8}
{"Structure notation": "COc1ccc(Cn2c([C@@H](Cc3c[nH]c4ccccc34)NC=O)nnc2[C@@H](Cc2c[nH]c3ccccc23)NC(=O)C(C)(C)N)cc1", "Measured quantity": "Ki", "Relation qualifier": "=", "Val": 46}

###

# Target system: Growth hormone secretagogue receptor type 1 (Homo sapiens, UniProt Q92847)
# Assay: Antagonist activity at human GHS-R1a transfected in CHO cells assessed as inhibition of ghrelin-induced intracellular calcium mobilization measured over 60 secs by fluo-4AM dye-based fluorometric method
# Format: functional, cell-based
Entries annotated with measured IC50

{"Structure notation": "COc1ccc(Cn2c([C@@H](N)Cc3ccccc3)nnc2[C@@H](Cc2c[nH]c3ccccc23)NC(=O)C(C)(C)N)cc1", "Target system": "Growth hormone secretagogue receptor type 1 (Homo sapiens, UniProt Q92847)", "IC50": "> 1000 nM"}
{"Structure notation": "COc1ccc(Cn2c([C@H](Cc3c[nH]c4ccccc34)NC(C)=O)nnc2[C@@H](Cc2c[nH]c3ccccc23)NC(=O)C(C)(C)N)cc1", "Target system": "Growth hormone secretagogue receptor type 1 (Homo sapiens, UniProt Q92847)", "IC50": "> 1000 nM"}
{"Structure notation": "COc1ccc(Cn2c([C@@H](Cc3ccccc3)NC(C)=O)nnc2[C@@H](Cc2c[nH]c3ccccc23)NC(=O)[C@@H]2CNCCO2)cc1", "Target system": "Growth hormone secretagogue receptor type 1 (Homo sapiens, UniProt Q92847)", "IC50": "3 nM"}
{"Structure notation": "COc1ccc(Cn2c([C@@H](Cc3ccccc3)NC(C)=O)nnc2[C@@H](Cc2c[nH]c3ccccc23)NC(=O)c2cc(F)cc(F)n2)cc1", "Target system": "Growth hormone secretagogue receptor type 1 (Homo sapiens, UniProt Q92847)", "IC50": "4 nM"}
{"Structure notation": "COc1ccc(Cn2c([C@@H](N)Cc3c[nH]c4ccccc34)nnc2[C@@H](Cc2c[nH]c3ccccc23)NC(=O)C(C)(C)N)cc1", "Target system": "Growth hormone secretagogue receptor type 1 (Homo sapiens, UniProt Q92847)", "IC50": "> 1000 nM"}
